experiment: log P determination by HPLC on reversed-phase columns (C 18), analogously to OECD Guideline 117; assay type: physicochemical; details: LC-MS in the neutral range, pH 7.8, 0.001 molar aqueous ammonium hydrogencarbonate / acetonitrile, HPLC reversed-phase C 18
# logP (neutral) listing for each entry below

Examples with their reported logP (neutral) follow.
>>> observed_value("Cc1cc(F)c(-n2c(=O)n(C(C)C)c(=O)n2C)cc1SCC(F)(F)F")
3.28
>>> observed_value("Cc1cc(F)c(N2C(=O)C(C)(C)C(=O)N2Cc2ccccc2)cc1SCC(F)(F)F")
3.76
>>> observed_value("Cn1c(=O)n(C2CC2)c(=O)n1-c1cc([S+]([O-])CC(F)(F)F)c(Br)cc1F (stereo not shown)")
2.18

Moving on to the next compound.
Q. Look up logP (neutral) for this compound: Cc1cc(F)c(N2C(=O)C(=O)N(CC(C)C)C2=S)cc1SCC(F)(F)F
A. 4.54

* * *

test: log P determination by HPLC on reversed-phase columns (C 18), analogously to OECD Guideline 117; format: physicochemical; conditions: LC-MS in the acidic range, pH 2.7, 0.1% aqueous formic acid / acetonitrile, HPLC reversed-phase C 18
Reported logP (HCOOH) by item:
Give only the figure.

>>> observed_value("C#CCn1c(=O)n(-c2cc([S+]([O-])CC(F)(F)F)c(C)cc2F)c(=O)n1C (racemic)")
1.96
>>> observed_value("Cc1cc(F)c(-n2c(=O)n(C3CC3)c(=O)n2CC(F)(F)F)cc1SCC(F)(F)F")
3.48
>>> observed_value("Cc1cc(F)c(-n2c(=O)n(C3CC3)c(=O)n2C)cc1SCC(F)(F)F [Example 35]")
2.83
>>> observed_value("COc1ccc(-n2c(=O)n(C3CC3)c(=O)n2C)cc1SCC(F)(F)F")
2.51

Q. Param item = CCn1c(=O)n(C)n(-c2cc([S+]([O-])CC(F)(F)F)c(C)cc2F)c1=O (stereo not shown) ; retrieve measured logP (HCOOH).
A. 1.93

Q. Now the same for CCC1(CC)C(=O)N(C)N(c2cc([S+]([O-])CC(F)(F)F)c(C)cc2F)C1=O (stereo not shown)
A. 2.37

Q. Would you mind doing Cc1ccc(-n2c(=O)n(C3CC3)c(=O)n2C)cc1SCC(F)(F)F as well?
A. 2.89

Q. Check Cc1cc(C)c(N2C(=O)CSC2=NC2CC2)cc1SCC(F)(F)F too.
A. 3.65

Q. Check Cc1cc(C)c([S+]([O-])CC(F)(F)F)cc1N1C(=O)C(=O)N(CC(F)(F)F)C1=S (stereo not shown) too.
A. 3.18

* * *

experiment: log P determination by HPLC on reversed-phase columns (C 18), analogously to OECD Guideline 117; type: physicochemical; settings: LC-MS in the acidic range, pH 2.7, 0.1% aqueous formic acid / acetonitrile, HPLC reversed-phase C 18
Let's look at some molecules and their measured logP (HCOOH).
# respond with the number and nothing more

>>> observed_value("Cc1cc(F)c(-n2c(=O)n(C3CC3)c(=O)n2CC(F)(F)F)cc1[S+]([O-])CC(F)(F)F (stereo not drawn)")
2.58
>>> observed_value("C=CCn1c(=O)n(C)n(-c2cc([S+]([O-])CC(F)(F)F)c(C)cc2F)c1=O (stereo not drawn)")
2.07
>>> observed_value("Cc1cc(F)c(-n2c(=O)n(C)c(=O)n2C(C)C)cc1SCC(F)(F)F")
3.29

Q. Returns the measured logP (HCOOH) for the input molecule. Input: Cc1cc(F)c(-n2c(=O)n(C3CC3)c(=O)n2C)cc1[S+]([O-])CC(F)(F)F (stereo not drawn) [Example 34]
A. 1.91

Q. For CCn1c(=O)n(C(C)(C)C)c(=O)n1-c1cc(SCC(F)(F)F)c(C)cc1F then?
A. 4.21

Q. Moving on to the next molecule: Cc1ccc(-n2c(=O)n(C)c(=O)n2-c2ccc(C)c([S+]([O-])CC(F)(F)F)c2)cc1[S+]([O-])CC(F)(F)F (stereo not drawn)
A. 2.67
